Measured pIC50 values are reported for all entries that follow.
- Experimental protocol: Inhibition of HIV1 3B recombinant gp120/sCD4 binding interaction by ELISA
pIC50: −log10 of the molar value.
Property name: pIC50

1. Cc1cc(-c2cc[nH]n2)ccc1C(=O)C(=O)N1CCN(C(=O)c2ccccc2)C[C@H]1C	< 5.00
2. Cc1ccc(-c2ccc(C(=O)C(=O)N3CCN(C(=O)c4ccccc4)C[C@H]3C)cc2)o1	< 5.00
3. C[C@@H]1CN(C(=O)c2ccccc2)CCN1C(=O)C(=O)c1ccc(-c2nccs2)cc1	< 5.00
